- Tested on: Pseudomonas BRK 12-4-4
- EXPERIMENT SUMMARY: in vitro antibacterial activity, minimal inhibitory concentration
- Type: cell-based
- APPLIED CONDITIONS: BRK1244; Pseudomonas BRK 12-4-4, in vitro
MEASURED PROPERTY: MIC

• CC(=O)NC(C)C(=O)Nc1ccc(-c2ncc(C(=O)N[C@@H](C(=O)NC3C(=O)N4C(C(=O)O)=C(CSc5nnnn5CC(=O)O)CSC34)c3ccccc3)c(O)n2)cc1 (mixture of isomers) [Example 35] = 12.5 µg/mL
• CC(=O)N[C@H](C)C(=O)Nc1ccc(-c2ncc(C(=O)N[C@@H](C(=O)N[C@@H]3C(=O)N4C(C(=O)O)=C(COC(C)=O)CS[C@H]34)c3cccs3)c(O)n2)cc1 [Example 19] = 6.3 µg/mL
• CC(=O)N[C@@H](C)C(=O)Nc1ccc(-c2ncc(C(=O)N[C@@H](C(=O)N[C@@H]3C(=O)N4C(C(=O)O)=C(COC(C)=O)CS[C@H]34)c3ccccc3)c(O)n2)cc1 [Example 10] = 12.5 µg/mL
• CC(=O)N[C@@H](C)C(=O)Nc1ccc(-c2ncc(C(=O)N[C@@H](C(=O)NC3C(=O)N4C(C(=O)O)=C(CSc5nnnn5CC(=O)O)CSC34)c3ccccc3)c(O)n2)cc1 (stereo partly drawn) [Example 33] = 12.5 µg/mL

Give MIC for all molecules that follow.
1. CC(=O)NC(CCC(N)=O)C(=O)Nc1ccc(-c2ncc(C(=O)N[C@@H](C(=O)N[C@@H]3C(=O)N4C(C(=O)O)=C(COC(C)=O)CS[C@H]34)c3ccccc3)c(O)n2)cc1 (mixture of isomers) [Example 14]
2. CC(=O)NC(CCC(N)=O)C(=O)Nc1ccc(-c2ncc(C(=O)N[C@@H](C(=O)NC3C(=O)N4C(C(=O)O)=C(CSc5nnnn5C)CSC34)c3ccccc3)c(O)n2)cc1 (mixture of isomers) [Example 23]
3. CC(=O)NC(C)(C)C(=O)Nc1ccc(-c2ncc(C(=O)N[C@@H](C(=O)N[C@@H]3C(=O)N4C(C(=O)O)=C(COC(C)=O)CS[C@H]34)c3ccccc3)c(O)n2)cc1 [Example 2]
4. CC(=O)N[C@@H](C(=O)Nc1ccc(-c2ncc(C(=O)N[C@@H](C(=O)NC3C(=O)N4C(C(=O)O)=C(CSc5nnnn5C)CSC34)c3ccccc3)c(O)n2)cc1)C(C)C (stereo partly drawn) [Example 29]
5. CC(=O)NCC(=O)Nc1ccc(-c2ncc(C(=O)N[C@@H](C(=O)NC3C(=O)N4C(C(=O)O)=C(CSc5nnc(C)s5)CSC34)c3ccccc3)c(O)n2)cc1 (stereo partly drawn) [Example 39]

1: 12.5 µg/mL; 2: 12.5 µg/mL; 3: 6.3 µg/mL; 4: 12.5 µg/mL; 5: 25 µg/mL

====

MIC data for Prot. vulg. follow.
One number for each entry, in µg/mL.

Consider the worked cases shown below.
- CC(=O)NC(CCC(N)=O)C(=O)Nc1ccc(-c2ncc(C(=O)N[C@@H](C(=O)NC3C(=O)N4C(C(=O)O)=C(CSc5nnnn5C)CSC34)c3ccccc3)c(O)n2)cc1 (mixture of isomers): 12.5
- CC(=O)N[C@H](C)C(=O)Nc1ccc(-c2ncc(C(=O)N[C@@H](C(=O)NC3C(=O)N4C(C(=O)O)=C(CSc5nnnn5CC(=O)O)CSC34)c3ccc(O)cc3)c(O)n2)cc1 (stereo partly shown): 1.6
- CC(=O)N[C@@H](C(=O)Nc1ccc(-c2ncc(C(=O)N[C@@H](C(=O)NC3C(=O)N4C(C(=O)O)=C(CSc5nnnn5C)CSC34)c3ccccc3)c(O)n2)cc1)C(C)C (stereo partly shown): 6.3

Turning now to a further molecule:
Give MIC; test system Prot. vulg.; molecule CC(=O)N[C@H](C)C(=O)Nc1ccc(-c2ncc(C(=O)N[C@@H](C(=O)N[C@@H]3C(=O)N4C(C(=O)O)=C(COC(C)=O)CS[C@H]34)c3ccccc3)c(O)n2)cc1
12.5
